percentage of competition reference
# measured_target: T1, OX40 (antigen of the competitive ELISA of Example 5) (UniProt P43489 29-214)
# T1 sequence (looked up): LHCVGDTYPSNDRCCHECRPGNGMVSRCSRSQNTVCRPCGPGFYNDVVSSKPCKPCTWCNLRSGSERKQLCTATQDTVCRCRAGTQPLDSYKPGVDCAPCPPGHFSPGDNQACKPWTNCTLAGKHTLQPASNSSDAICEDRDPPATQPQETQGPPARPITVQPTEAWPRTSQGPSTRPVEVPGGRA
# assay_details: competitive ELISA; competitor MEDI0562
attribute_measured: percentage of competition (%)

binder	measured_number
MAb049 (antibody, IgG1, V domains shown) VH: EVQLQQSGPELVKPGASVKISCKASGHTLTDYYMNWVKQSHGKSPEWIGDINPNNDGIDYNQKFRGKAILTVDKSSSSFYMELRSLTSEDSAVYYCVGFVRGYFVSWGQGTTLTVSS VL: DIQMTQTTSSLSASLGDRVTINCRASQDISNYLNWYQQKPDGTVKLLIYYTSRLRSGVPSRFSGSGSGTDYSLTINNLDQEDFATYFCQQGNTLPWTFGGGTKLEI	97
MAb033 (antibody, IgG1, V domains shown) VH: QVQLQQSGAELVRPGTAVRVSCKASGYAFTNYFIEWVKQRPGQGLEWIGVINPGSGDTYYSEKFQGKATLTADKSSSTAYMQLSSLTSEDSAVYFCAREDDYSWFTYWGQGTLVTVSA VL: DIVLTQSPASLAVSLGQRATISCRASENVDNYGISFMHWYRQKPGQPPKLLIYRASNLESGIPARFSGSGSRTDFTLTINPVETDDVATYYCQQSNKDPYTFGGGTKLEIK	7
